For each record, write down the corresponding IC50.
target: SCD5 (Homo sapiens, UniProt Q86SK9); construct: host or cells: S. cerevisiae ole1Δ strain (W303 pdr1Δ pdr3Δ background), plasmid pRS316 with TDH3 promoter and CYC1 terminator; assay: Growth inhibition of humanized yeast strain expressing SCD5 as sole desaturase; assay type: cell-based; conditions: humanized yeast strain expressing SCD5
Sequence (Q86SK9 whole entry): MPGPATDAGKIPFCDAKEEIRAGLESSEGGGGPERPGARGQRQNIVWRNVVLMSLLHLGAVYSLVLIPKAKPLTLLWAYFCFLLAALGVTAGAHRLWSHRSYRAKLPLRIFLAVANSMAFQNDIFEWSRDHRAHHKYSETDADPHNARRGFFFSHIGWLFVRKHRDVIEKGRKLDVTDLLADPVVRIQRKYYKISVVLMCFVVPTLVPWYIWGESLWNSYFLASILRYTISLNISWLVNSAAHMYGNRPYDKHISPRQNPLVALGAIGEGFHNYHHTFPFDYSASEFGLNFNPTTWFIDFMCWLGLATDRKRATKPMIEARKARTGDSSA

Inquiry: Quick one: IC50 of Cc1cccc(-c2nc(C3CCN(C(=O)[C@H]4CC(=O)N(c5ccc(C)c(C)c5)C4)CC3)no2)c1 (single isomer, unassigned) ?
Reply text: > 45 µM

Inquiry: Using the record for `CCN1C(=O)COc2ccc(-c3noc(C4(c5ccc(OC)cc5)CC4)n3)cc21` , report its IC50.
Reply text: > 45 µM

Inquiry: Please look up its IC50: `O=C(NCC(=O)N1CCC(c2nc(-c3ccccc3)no2)CC1)c1ccccc1`
Reply text: > 45 µM

Inquiry: Returns the measured IC50 for the input compound. Input: `Cc1nn(C)c2cc(-c3noc(C4CCN(C(=O)CNC(=O)c5ccc(C#N)cc5)CC4)n3)ccc12`
Reply text: > 45 µM

Inquiry: Need IC50, item Cc1noc2cc(-c3noc(C4CCN(C(=O)C5CC(=O)N(c6ccccc6)C5)CC4)n3)ccc12 (stereo not drawn)
Reply text: > 45 µM

Inquiry: Which value of IC50 has been reported for `Cc1nn(C)c2cc(-c3noc(C4CCN(C(=O)CC5CC5)CC4)n3)ccc12` in the records?
Reply text: > 45 µM

Inquiry: // IC50 lookup, key: CCOc1ccc(-c2noc(C3CCN(C(=O)C(CO)N4Cc5ccccc5C4=O)CC3)n2)cc1OC (stereo not drawn)
Reply text: > 45 µM

Inquiry: Recorded IC50 for `Cc1nn(C)c2cc(-c3noc(C4CCN(C(=O)NC(C)(C)C)CC4)n3)ccc12` , please?
Reply text: 28.9 µM

Inquiry: Which IC50 value belongs to Cc1nn(C)c2cc(-c3noc(C4CCN(C(=O)C5CC(=O)N(c6ccccc6C#N)C5)CC4)n3)ccc12 (stereo not drawn) ?
Reply text: > 45 µM

Inquiry: Look at this compound and give its reported IC50. CC(C)n1ncc2ccc(-c3nc(C4CCN(C(=O)CC(C)(C)C)C4)no3)cc21 (stereo not drawn)
Reply text: 7.33 µM

Inquiry: Entry `COc1ccc(-c2noc(C3CCN(C(=O)CNC(=O)c4ccccc4)CC3)n2)cc1OC(C)C` : reported IC50 = ?
Reply text: > 45 µM

Inquiry: May I ask what IC50 has been recorded for N#CCC1CN(c2noc(C3CCN(C(=O)C4CC(=O)N(c5ccccc5)C4)CC3)n2)C1 (stereo not drawn) ?
Reply text: > 45 µM

* * *

target: SCD1 (Homo sapiens, UniProt O00767); construct: host or cells: S. cerevisiae ole1Δ strain (W303 pdr1Δ pdr3Δ background), plasmid pRS316 with TDH3 promoter and CYC1 terminator; test: Growth inhibition of humanized yeast strain expressing SCD1 as sole desaturase; format: cell-based; settings: humanized yeast strain, 40 h
Sequence (O00767 whole entry): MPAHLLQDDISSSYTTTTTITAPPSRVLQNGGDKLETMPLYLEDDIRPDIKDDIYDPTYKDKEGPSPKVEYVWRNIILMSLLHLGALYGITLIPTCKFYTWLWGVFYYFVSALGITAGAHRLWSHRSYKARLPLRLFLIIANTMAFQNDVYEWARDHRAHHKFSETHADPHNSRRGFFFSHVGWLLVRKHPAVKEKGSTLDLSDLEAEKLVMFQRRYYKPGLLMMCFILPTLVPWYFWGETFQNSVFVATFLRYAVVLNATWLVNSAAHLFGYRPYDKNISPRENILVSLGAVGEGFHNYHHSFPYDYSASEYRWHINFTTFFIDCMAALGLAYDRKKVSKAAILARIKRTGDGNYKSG
readoutLabel: IC50

Inquiry: For `CC(C)(C)OC(=O)N1CCC(c2cc(-c3cc4c(cn3)cnn4C3COC3)no2)CC1` , what is its reported IC50?
Reply text: 1.78 µM

Inquiry: Please look up its IC50: `CC(C)C(=O)N1CC[C@H](c2noc(-c3ccc4cnn(C5COC5)c4c3)n2)C[C@H]1C`
Reply text: > 45 µM

Inquiry: Fill blank: measured IC50 of the compound `CC(C)(C)OC(=O)N1CCC(c2noc(-c3ccc4cnn([C@@H]5CCOC5)c4c3)n2)CC1` is ____.
Reply text: 32.3 µM

Inquiry: Endpoint output: IC50 of COC(=O)N1CCC(c2noc(-c3ccc4cnn(C5CCS(=O)(=O)C5)c4c3)n2)CC1 (stereo not shown) . Value?
Reply text: > 45 µM

Inquiry: Fill blank: measured IC50 of the compound `CC(C)(C)OC(=O)N1CCC(c2nc(-c3ccc4cnc(C#N)n4c3)no2)CC1` is ____.
Reply text: > 45 µM

Inquiry: Field request: IC50 | item: `O=C(c1ccccc1F)N1CCC(c2noc(-c3ccnc(Cl)c3)n2)CC1`
Reply text: > 45 µM

Inquiry: IC50 for CC1(OC(=O)N2CCC(c3nc(-c4ccc5cnn(C6CCOC6)c5c4)no3)CC2)CC1 (stereo not shown) ?
Reply text: 4.16 µM

Inquiry: What does the data say about its IC50? Entry: `CC(C)(C)OC(=O)N1CCC(c2nc(-c3cccc(C(=O)C4COC4)c3)no2)CC1`
Reply text: > 45 µM

Inquiry: Can you share its IC50? I mean this compound: `CC(=O)N1CC(n2cc3ccc(-c4noc(N5CCN(C(=O)OC(C)(C)C)CC5)n4)cc3n2)C1`
Reply text: > 45 µM

Inquiry: Which value of IC50 has been reported for `CCC(=O)N1CCC(c2nc(-c3ccc4onc(C(C)C)c4c3)no2)CC1` in the records?
Reply text: > 45 µM

* * *

target: SCD5 (Homo sapiens, UniProt Q86SK9); construct: host or cells: S. cerevisiae ole1Δ strain (W303 pdr1Δ pdr3Δ background), plasmid pRS316 with TDH3 promoter and CYC1 terminator; test: Growth inhibition of humanized yeast strain expressing SCD5 as sole desaturase; type: cell-based; settings: yeast strain expressing human SCD5 as sole desaturase; Table 8
readoutLabel: pIC50
// field semantics: pIC50 = negative decimal log of concentration (mol/L)

Inquiry: What value of pIC50 on SCD5 (Homo sapiens, UniProt Q86SK9) does O=C(C1CCC1)N1CCC(c2noc(-c3cc(C4CCOC4)c(F)cn3)n2)CC1 (stereo not drawn) have?
Reply text: 6.80

Inquiry: Requested read-out pIC50, target or system SCD5 (Homo sapiens, UniProt Q86SK9), entry `CC(C)C(=O)N1CCC(c2noc(-c3cc(F)c(F)c(N4CCOCC4)c3)n2)CC1`
Reply text: 4.93

Inquiry: Give recorded pIC50 with SCD5 (Homo sapiens, UniProt Q86SK9) for the following compound: `O=C(C1CC1)N1CCC(c2cc(-c3cc4c(cn3)cnn4C3COC3)on2)CC1`
Reply text: 6.70

Inquiry: Hello, I am looking for reported pIC50 with SCD5 (Homo sapiens, UniProt Q86SK9) for `CC(C)(C)OC(=O)N1CCC(c2noc(-c3ccnc(-c4cnco4)c3)n2)CC1` . Could you help?
Reply text: 6.24

Inquiry: Give the reported pIC50 for `O=C(C1CCC1)N1CCC(c2noc(-c3ccnc([C@H]4CCOC4)c3)n2)CC1` (system: SCD5 (Homo sapiens, UniProt Q86SK9)).
Reply text: 6.70

Inquiry: pIC50 of CC1(C(=O)N2CCC(c3noc(-c4cncc(C5CCOC5)c4)n3)CC2)CCC1 (stereo not drawn) on SCD5 (Homo sapiens, UniProt Q86SK9)?
Reply text: 6.40

Inquiry: What reported pIC50 corresponds to O=C(N1CCC(c2nc(-c3ccnc(C4CCOC4)c3)no2)CC1)C1(F)CC1 (stereo not drawn) on SCD5 (Homo sapiens, UniProt Q86SK9)?
Reply text: 5.82

Inquiry: SCD5 (Homo sapiens, UniProt Q86SK9) / pIC50 / `CCC(=O)N1CCC(c2noc(-c3cc(N4CCOCC4)c(F)cn3)n2)CC1` : value?
Reply text: 5.33

Inquiry: Given the entry `CC(C)C(=O)N1CCC(c2cc(-c3cc4c(cn3)cnn4C3COC3)on2)CC1` , what pIC50 was observed with SCD5 (Homo sapiens, UniProt Q86SK9)?
Reply text: 7.70

* * *

molecular target: SCD5 (Homo sapiens); construct: host or cells: S. cerevisiae ole1Δ strain (W303 pdr1Δ pdr3Δ background), plasmid pRS316 with TDH3 promoter and CYC1 terminator; assay: Growth inhibition of humanized yeast strain expressing SCD5 as sole desaturase; type: cell-based; conditions: humanized yeast strain expressing SCD5
For each entry below, report its SCD5 % Max Inhibition value.
Numbers only here, please. The scale is %.

Inquiry: Fill in the blank: the reported SCD5 % Max Inhibition of CC(C)n1cc2ccc(-c3noc(C4CCN(C(=O)C5CC(=O)N(c6ccccc6)C5)CC4)n3)cc2n1 (stereo not drawn) [Compound 180] is ____.
Reply text: 82.28

Inquiry: For the molecule shown here, Cn1c(=O)n(C)c2cc(-c3noc(C4CCN(C(=O)CNC(=O)c5cccnc5)CC4)n3)ccc21 [Compound 233] , give the reported SCD5 % Max Inhibition.
Reply text: 74.91

Inquiry: # query: SCD5 % Max Inhibition of entry CC(C)n1ncc2ccc(-c3noc(C4CCN(C(=O)c5ccc(Cl)cc5)CC4)n3)cc21 [Compound 363]
Reply text: 1.99

* * *

Target: Ole1 (Saccharomyces cerevisiae, UniProt P21147)
Construct: expressed in transfected cells; host or cells: S. cerevisiae ole1Δ strain (W303 pdr1Δ pdr3Δ background), plasmid pRS316 with TDH3 promoter and CYC1 terminator
Sequence (P21147 1-510): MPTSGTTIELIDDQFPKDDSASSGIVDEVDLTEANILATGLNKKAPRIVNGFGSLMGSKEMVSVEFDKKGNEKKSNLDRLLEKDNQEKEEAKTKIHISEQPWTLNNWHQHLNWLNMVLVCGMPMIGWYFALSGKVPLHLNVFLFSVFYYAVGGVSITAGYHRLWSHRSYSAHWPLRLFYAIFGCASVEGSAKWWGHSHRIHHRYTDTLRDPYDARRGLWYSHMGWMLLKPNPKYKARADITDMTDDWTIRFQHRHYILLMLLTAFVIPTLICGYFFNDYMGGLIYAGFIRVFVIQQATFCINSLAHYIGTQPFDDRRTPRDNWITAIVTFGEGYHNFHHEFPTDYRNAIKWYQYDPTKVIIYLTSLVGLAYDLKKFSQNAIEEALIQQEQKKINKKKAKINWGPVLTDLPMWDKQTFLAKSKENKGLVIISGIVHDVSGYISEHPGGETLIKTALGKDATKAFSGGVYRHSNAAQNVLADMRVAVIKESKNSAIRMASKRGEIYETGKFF
Assay: Growth inhibition of yeast strain expressing Ole1 as sole desaturase
Type: cell-based
Settings: yeast strain expressing Ole1 as sole desaturase
Protocol: Strain oleΔ (yeast ole1 deletion mutant) was constructed by deleting OLE1 with NAT-MX6 in BY4741, amplifying the deletion cassette from the genomic DNA of the resulting strain with primers flanking the ORF by 1000 bp upstream and downstream, transforming the resulting deletion cassette into W303 pdr1Δ pdr3Δ, and plating transformants on YPD media containing G418 (200 μg/mL) and nourseothricin ([…]) with 0.01% TWEEN®-20 and 0.5 mM oleic and palmitoleic acids. […]
readoutLabel: OLE1 % Max Inhibition (%)
State just the number; it will be interpreted in %.

Inquiry: Tell me reported OLE1 % Max Inhibition for COc1ccc(-c2noc(CCNC(=O)CNC(=O)c3ccccc3)n2)cc1OC [Compound 484] , tested with Ole1 (Saccharomyces cerevisiae, UniProt P21147).
Reply text: 92.09

Inquiry: Which OLE1 % Max Inhibition is reported with Ole1 (Saccharomyces cerevisiae, UniProt P21147) for this entry: O=C(C1CC(=O)N(c2cccc(Cl)c2)C1)N1CCC(c2nc(N3CC4(COC4)C3)no2)CC1 (stereo not shown) [Compound 339] ?
Reply text: 85.7

Inquiry: Recorded OLE1 % Max Inhibition for CCOc1ccc(-c2noc(C3CCN(C(=O)CN4Cc5c(F)cccc5C4=O)CC3)n2)cc1OC [Compound 175] with Ole1 (Saccharomyces cerevisiae, UniProt P21147), please?
Reply text: 3.00

Inquiry: Record COc1ccc(-c2noc(C3CCN(C(=O)C4CC(=O)N(c5cccc(C#N)c5)C4)CC3)n2)cc1OC(C)C (stereo not shown) [Compound 296] : what is its OLE1 % Max Inhibition with Ole1 (Saccharomyces cerevisiae, UniProt P21147)?
Reply text: 99.1

Inquiry: Query the reported OLE1 % Max Inhibition for Ole1 (Saccharomyces cerevisiae, UniProt P21147); item: COc1cccc(C(=O)NCC(=O)N2CCC(c3nc(-c4ccc5c(C)nn(C)c5c4)no3)CC2)n1 [Compound 154]
Reply text: 1.20

Inquiry: Requested read-out OLE1 % Max Inhibition, target or system Ole1 (Saccharomyces cerevisiae, UniProt P21147), entry O=C(CN1Cc2ccccc2C1=O)N1CCC(c2nc(-c3ccc4c(c3)COC4)no2)CC1 [Compound 223]
Reply text: 2.22

Inquiry: Fill in the recorded OLE1 % Max Inhibition for this compound, with Ole1 (Saccharomyces cerevisiae, UniProt P21147) as test system: Cc1nn(C)c2cc(-c3noc(C4CCN(C(=O)C5CN(C(=O)c6ccccc6)C5)CC4)n3)ccc12 [Compound 236]
Reply text: 8.46

Inquiry: Identify the measured OLE1 % Max Inhibition of COc1ccc(-c2noc(C3CCNCC3)n2)cc1OC [Compound 488] for Ole1 (Saccharomyces cerevisiae, UniProt P21147).
Reply text: 90.53

Inquiry: Please state recorded OLE1 % Max Inhibition (tested on Ole1 (Saccharomyces cerevisiae, UniProt P21147)) of CC(C)n1ncc2ccc(-c3noc(C4CCN(C(=O)c5ccccc5)CC4)n3)cc21 [Compound 346]
Reply text: 12.12

Inquiry: Please state recorded OLE1 % Max Inhibition (tested on Ole1 (Saccharomyces cerevisiae, UniProt P21147)) of O=C(NCC(=O)N1CCC(c2nc(-c3ccc4c(c3)OC(F)(F)O4)no2)CC1)c1ccccc1 [Compound 109]
Reply text: 87.87
